# Test system: HOP-62 NSCLC
# ASSAY EXPLANATION: NCI tumour cell line growth inhibition, 48 h; in the data active = GI50 below about 0.43 µM; inactive = the rest
Just give me one of these, please: 1 (yes) for active, 0 (no) for inactive

Observe how each entry below is paired with its result.
-- ask What was the test verdict on COc1cc(-c2c(C#N)c(N)nc(N3CCOCC3)c2C#N)cc(OC)c1OC ?
-- reply 0 (no)

-- ask Queued: CN1C/C=C/CCOc2cccc(c2)-c2ccnc(n2)Nc2cccc(c2)C1
-- reply 1 (yes)

-- ask Queued: c1ccc2cc(C[n+]3ccn(CCCCCCCCCCn4cc[n+](Cc5ccc6ccccc6c5)c4)c3)ccc2c1
-- reply 0 (no)

-- ask Queued: Cc1ccc(NC(=O)c2sc3nc4c(cc3c2N)C(=O)CCC4)cc1C
-- reply 0 (no)

-- ask Queued: O=C1c2ccccc2-c2c1c1ccccc1c(=O)n2CCCNCCCCNCCCN1C(=O)c2ccccc2C2C(=O)c3ccccc3C21 (stereo not given)
-- reply 1 (yes)

-- ask Queued: Cn1c(NCC(O)CN2CCCC2)cc(=O)n(C)c1=O (stereo not given)
-- reply 0 (no)

-- ask Queued: CC(=O)N1N=C2/C(=C/c3ccc(Cl)cc3)CC(C)CC2C1c1ccc(Cl)cc1 (stereo not given)
-- reply 0 (no)

-- ask Queued: NCC1OC(OC2C(CO)OC(OC3C(O)C(N)CC(N)C3OC3OC(CO)C(O)CC3N)C2O)C(N)C(O)C1OC1OC(CO)C(O)C(O)C1O (stereo not given)
-- reply 0 (no)

-- ask Queued: O=C1OCC2=C1C(c1ccc(Cl)c(Cl)c1)c1cc3c(cc1N2CCO)CCC3 (stereo not given)
-- reply 1 (yes)

Please find the next molecule below.
-- ask What was the test verdict on CC(=O)c1cc(C(=O)c2ccc3c(c2)Sc2ccccc2N3)c2cc(C)ccn12 ?
-- reply 1 (yes)

----------
# TGI per record follows
# Test system: SF-539 CNS
# ASSAY EXPLANATION: NCI tumour cell line growth inhibition, 48 h
Express your answer in µM, writing the number without its unit.

-- ask For the compound O=C(Nc1cccc2c1[nH]c1c(-c3ccccc3)nccc12)c1ccccc1[N+](=O)[O-] , what TGI is on record?
-- reply 97

-- ask Queued: O=C(c1ccco1)c1c(C(F)(F)F)n([O-])c2ccc(Cl)cc2[n+]1=O
-- reply 0.924

-- ask Queued: CC(=O)Oc1ccc(/C(=C(\C)c2ccc(Cl)cc2)c2ccc(OCCN3CCCCC3)cc2)cc1
-- reply 3.57

Others:
-- ask For the compound CN1C/C=C/CCOc2cccc(c2)-c2ccnc(n2)Nc2cccc(c2)C1 , what TGI is on record?
-- reply 0.155

----------
# TGI per record follows
# Tested on: UACC-257 melanoma
# ASSAY EXPLANATION: NCI tumour cell line growth inhibition, 48 h
Express your answer in µM, writing the number without its unit.

Examples from the recorded data:
-- ask For the compound O=C1C=CC(=O)c2c1ccc1c3ccccc3n(-c3ccccc3[N+](=O)[O-])c21 , what TGI is on record?
-- reply 13.1

-- ask Queued: Oc1cc2ccccc2c(-c2c(O)c(O)cc3ccccc23)c1O
-- reply 24.3

# next compound below
-- ask For the compound O=C1c2ccccc2-c2c1c1ccccc1c(=O)n2CCCNCCCCNCCCN1C(=O)c2ccccc2C2C(=O)c3ccccc3C21 (stereo not given) , what TGI is on record?
-- reply 11.7
